- System: SK-MEL-28 melanoma
- assay_info: NCI-60 one-dose screen, 48 h (100 = growth as untreated, 0 = no growth, -100 = all killed)
- condition_parameters: 10 µM
- Protocol: Growth inhibition of the SK-MEL-28 human tumor cell line is measured as a screen for anti-cancer activity. Cells are grown in 96 well plates and exposed to the test compound for 48 hours. Compounds are tested at a single concentration, which is 10^-5 M for most compounds. The reported endpoint is percent growth (GI% or GIPRCNT), where numbers from 0 - 100% represent growth inhibition, and numbers from -100% - 0 represent cell death. For example, a value of 40 represents 60% growth inhibition. […]
This is part of a sample that, as a whole, favours compounds with a hit. Of some 83,000 tested, about 20% had one in any assay.
assay_metric: growth (%)
Dear colleague, please return just the value in %, with no unit written.

Q: Which growth value belongs to COC[C@@H](CC(C)C)N=C1N/C(=C\c2ccc3ncsc3c2)C(=O)N1C ?
A: -1.69

Q: Further, for CCOC(=O)c1sc(N/N=C(\C)c2ccc3c(c2)Nc2ccccc2S3)nc1C ?
A: 39.1

Q: Further, for C[C@H]1[C@H](C)CC[C@]2(COC(=O)CCC(=O)NCC#CCN3CCNCC3)CC[C@]3(C)C(=CC[C@@H]4[C@@]5(C)CCCNC(C)(C)[C@@H]5CC[C@]43C)[C@H]12 ?
A: -26.5

Q: Further, for O=C(CN1CCN(c2ncnc3c2cnn3-c2ccccc2)CC1)Nc1nncs1 ?
A: 72.3

Q: Further, for CN1CCN(c2ccc(Nc3nc(N4CCN(S(=O)(=O)c5ccc(Cl)cc5)CC4)c4sccc4n3)cc2)CC1 ?
A: -98.6

Q: Further, for Nc1cccnc1/C=N/NC(=S)NCCNC(=O)c1ccc(-n2nc(-c3ccccc3O)nc2-c2ccccc2O)cc1 ?
A: 14.8

Q: Further, for Cc1cc(=O)oc2cc(OCCCCOc3ccc(/C=C/C(=O)Nc4ccc(F)c(Cl)c4)cc3)ccc12 ?
A: 93

Q: Further, for CCNCCCn1c2c(c3cc(OC)c(OC)cc3c1=O)C(=O)c1cc3c(nc1-2)OCO3 ?
A: 71

Q: Further, for Cc1ccc(C(=O)Nc2ccc(-n3c(C)nc4c(cnn4-c4ccccc4)c3=O)cc2)cc1 ?
A: 80.7

Q: Further, for CN1CCN(c2ccc(Nc3nc(NCCNC(=O)c4ccc(C(F)(F)F)cc4)c4sccc4n3)cc2)CC1 ?
A: -96.3

Q: Further, for Cc1ccn2c(C(=O)c3ccc(Br)cc3)cc(-c3cc(-c4ccc(N(C)C)cc4)c(C#N)c(N)n3)c2c1 ?
A: 51.1

Q: Further, for COc1ccsc1/C=N/NC(=O)c1[nH]c2ccc(Br)cc2c1-c1ccccc1 ?
A: 30.8

Q: Further, for CO[C@H]1CSS[C@@H]1Cn1nc(-c2ccc(Oc3ccccc3)cc2)c2c(N)ncnc21 ?
A: -35.8

Q: Further, for Cc1noc2c(Cc3ccc([N+](=O)[O-])cc3)nn(CC(=O)N/N=C/c3ccc(Cl)cc3)c(=O)c12 ?
A: 69.9

Q: Further, for O=C1Nc2ccc(F)cc2/C1=C/c1cccc(OCc2ccccc2)c1 ?
A: 36.2

Q: Further, for CN1CCN(Cc2ccc(NC(=O)c3cncc(C#Cc4cnc5ccc(N[C@H]6CCOC6)nn45)c3)cc2C(F)(F)F)CC1 ?
A: -92.8

Q: Further, for CCCn1c(O)c(N=Nc2nc(-c3cc4ccccc4oc3=O)cs2)c2cc(Br)ccc21 ?
A: 101

Q: Further, for COc1ccc(C(=O)Nc2sc3c(c2C#N)CCC(=O)C3)cc1C(F)(F)F ?
A: -12.6

Taken from PubChem BioAssay (NCI).
